# Tested on: ACHN
# EXPERIMENT SUMMARY: NCI tumour cell line growth inhibition, 48 h
Calls of active or inactive are those of the source. Rule as the data show it: active = GI50 up to about 1.1 µM and inactive = higher.
MEASURED PROPERTY: GI50

MOLECULE: CC(=O)NNC1=NN(C(C)=O)C2(S1)C(=O)Nc1ccccc12 (stereo unspecified)
GI50: > 100 µM (inactive)
--
MOLECULE: O=C(c1ccccc1F)c1c(NCc2ccccc2)c(=O)c1=O
GI50: > 100 µM (inactive)
--
MOLECULE: COc1cc([N+](=O)[O-])ccc1NC(=O)c1cccc([N+](=O)[O-])c1O
GI50: 12.6 µM (inactive)
--
MOLECULE: O=C1c2ccccc2C(=O)c2c1nc1ccccc1c2-c1cncc(-c2c3c(nc4ccccc24)C(=O)c2ccccc2C3=O)c1
GI50: 4.08 µM (inactive)

Entry O=C(NCC(O)COc1ccccc1)c1ccccc1O (stereo unspecified) , GI50 reported as > 100 µM (inactive)

molecule NC1CC(=O)c2cc(Cl)sc21 (stereo unspecified) , GI50 observed: > 100 µM (inactive)
